test: Serum PFAS measurement by LC-HRMS, GenX Exposure Study participants; conditions: human, in vivo
Recorded concentration at 5 months for the following molecules
Measured Property: concentration at 5 months (ng/mL)

O=C(O)C(F)(F)OC(F)(F)OC(F)(F)OC(F)(F)OC(F)(F)F
5.6
O=C(O)C(F)(F)OC(F)(F)OC(F)(F)OC(F)(F)OC(F)(F)OC(F)(F)F
12.4
O=S(=O)(O)C(F)(F)C(F)(F)OC(F)C(F)(F)F (stereo not shown)
1.14
O=C(O)C(F)(F)OC(F)(F)OC(F)(F)OC(F)(F)F
1.02

----------
assay: Serum PFAS measurement by LC-HRMS, GenX Exposure Study participants; details: human, in vivo
Recorded concentration at 11 months for the following compounds
Measured Property: concentration at 11 months (ng/mL)

O=C(O)C(F)(F)OC(F)(F)OC(F)(F)OC(F)(F)OC(F)(F)OC(F)(F)F
8.91
O=C(O)C(F)(F)OC(F)(F)OC(F)(F)OC(F)(F)OC(F)(F)F
1.16
